The measured values listed here are drawn from paper PMC2920599.

- System: Leukemia
- method-notes: NCI 60 cell panel, five-concentration assay, leukemia subpanel
- Format: cell-based
- assay-setup: total growth inhibition; 48 h exposure
Where a name gives a salt, the structure may show the parent alone.
Please go through the items and note down their TGI Leukemia.
Give the value in µM but do not write µM after it.

Lookup: Could you please provide reported TGI Leukemia for COc1ccc2c(c1)/C(=C\c1c(Cl)[nH]c3ccc(N(C)C)cc13)C(=O)N2 [Compound 20] ? Thanks!
Found: 10.23

Lookup: Could you please provide reported TGI Leukemia for CC[C@]1(O)C[C@H]2CN(CCc3c([nH]c4ccccc34)[C@@](C(=O)OC)(c3cc4c(cc3OC)N(C=O)[C@H]3[C@@](O)(C(=O)OC)[C@H](OC(C)=O)[C@]5(CC)C=CCN6CC[C@]43[C@@H]65)C2)C1 [Vincristine sulfate, reference compound] ? Thanks!
Found: 15.85

Lookup: Could you please provide reported TGI Leukemia for COc1cc2c(cc1C)N(C)C(=O)/C2=C/c1c(Cl)[nH]c2ccccc12 [Compound 16] ? Thanks!
Found: 7.41

----------
- Test system: Leukemia
- method-notes: NCI 60 cell panel, five-concentration assay, leukemia subpanel
- Format: cell-based
- assay-setup: total growth inhibition; 48 h exposure
Label scheme for TGI Leukemia: lower than 20 µM is n, 20 µM and above is y.

Lookup: Form field: TGI Leukemia at least 20 µM? Entry: COc1cc2c(cc1C)NC(=O)/C2=C/c1c(Cl)n(C)c2cc(C)c(OC)cc12
Found: y

Lookup: Form field: TGI Leukemia at least 20 µM? Entry: COc1cc2c(/C=C3/C(=O)N(C)c4ccccc43)c(Cl)n(C)c2cc1C
Found: n

Lookup: Form field: TGI Leukemia at least 20 µM? Entry: COc1cc2c(/C=C3/C(=O)N(C)c4ccc(O)cc43)c(Cl)n(C)c2cc1C
Found: n

Lookup: Form field: TGI Leukemia at least 20 µM? Entry: CN(C)c1ccc2[nH]c(Cl)c(/C=C3/C(=O)Nc4ccc(Cl)cc43)c2c1
Found: n

Lookup: Form field: TGI Leukemia at least 20 µM? Entry: COc1cc2c(/C=C3/C(=O)Nc4ccc(Br)cc43)c(Cl)[nH]c2cc1C
Found: n

Lookup: Form field: TGI Leukemia at least 20 µM? Entry: COc1cc2c(/C=C3/C(=O)Nc4ccc(N(C)C)cc43)c(Cl)n(C)c2cc1C
Found: y

Lookup: Form field: TGI Leukemia at least 20 µM? Entry: COc1cc2c(cc1C)N(C)C(=O)/C2=C/c1c(Cl)n(C)c2cc(C)c(OC)cc12
Found: y

Lookup: Form field: TGI Leukemia at least 20 µM? Entry: CN(C)c1ccc2[nH]c(Cl)c(/C=C3/C(=O)Nc4ccc(O)cc43)c2c1
Found: n

----------
- Tested on: Leukemia
- method-notes: NCI 60 cell panel, five-concentration assay, leukemia subpanel
- Type: cell-based
- assay-setup: total growth inhibition; 48 h exposure
Please go through the items and note down their TGI Leukemia.
Give the value in µM but do not write µM after it.

Lookup: Could you please provide reported TGI Leukemia for COc1cc2c(/C=C3/C(=O)Nc4cc(Cl)ccc43)c(Cl)[nH]c2cc1C ? Thanks!
Found: 4.79

Lookup: Could you please provide reported TGI Leukemia for COc1cc2c(/C=C3/C(=O)Nc4cc(Cl)ccc43)c(Cl)n(C)c2cc1C ? Thanks!
Found: 1.74

Lookup: Could you please provide reported TGI Leukemia for COc1cc2c(/C=C3/C(=O)Nc4ccc(Br)cc43)c(Cl)n(C)c2cc1C ? Thanks!
Found: 20.89
